Hello, the source for this data is patent US20200199204A1, in case you need it.

# target.or.test.system: HIV-1 Env of ZM135.10a (HIV-1)
# assay.method.text: cell-based or functional assay
assay.endpoint: neutralization IC50

Task: Need neutralization IC50, item CAP256-VRC26.03 (antibody, V domains shown) VH: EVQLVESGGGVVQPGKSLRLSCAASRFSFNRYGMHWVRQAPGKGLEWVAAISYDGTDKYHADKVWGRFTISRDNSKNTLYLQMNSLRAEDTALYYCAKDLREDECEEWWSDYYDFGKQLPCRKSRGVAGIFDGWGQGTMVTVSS VL: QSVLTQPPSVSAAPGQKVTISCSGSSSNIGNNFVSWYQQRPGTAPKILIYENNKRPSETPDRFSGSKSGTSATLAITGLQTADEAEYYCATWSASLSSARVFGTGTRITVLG
Output: > 50 µg/mL

Task: Need neutralization IC50, item CAP256-VRC26.07 (antibody, V domains shown) VH: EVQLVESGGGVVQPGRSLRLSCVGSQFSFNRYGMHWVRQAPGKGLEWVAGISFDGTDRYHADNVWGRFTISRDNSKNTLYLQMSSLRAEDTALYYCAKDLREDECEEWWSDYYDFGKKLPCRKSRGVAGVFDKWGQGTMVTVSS VL: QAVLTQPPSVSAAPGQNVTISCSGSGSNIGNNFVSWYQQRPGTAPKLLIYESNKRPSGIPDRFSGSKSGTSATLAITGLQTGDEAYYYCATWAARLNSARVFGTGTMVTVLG
Output: > 50 µg/mL

Task: Need neutralization IC50, item CAP256-VRC26.09 (antibody, V domains shown) VH: EVQLVESGGGVVQPGRSLTLSCAASQFNFANYGMHWVRQAPGKGLEWVASISNDGTKKYHEESVWGRFTISKDNSKSTLFLQMNSLRIEDTALYFCVKDQREDECEEWWSDYYDFGRELPCRKSRGLGLAGIFDMWGHGTMVTVSS VL: QSALTQPPSVSAAPGQKVTISCSGNSSNIGNNFVSWYQQLPGTAPKLLIYENNRRPSGIPDRFSGSKSGTSATLAISGLQTGDEADYWCAVWGVRRGAGAVFGAGTKVTVLG
Output: > 50 µg/mL
